Test: AUC (0 to 24 hrs) in CD-1 mouse at 5 mg/kg administered via oral gavage by LC-MS/MS analysis
Assay type: ADME, organism-based
Design: time < 24 hr, dose 5 mg/kg, route oral
Details: in vivo
Readout Name: AUC(0-t) at 24 h (ng·h/mL)
Please reply with the bare figure in ng·h/mL and do not write the unit itself.

Identify AUC(0-t) at 24 h associated with the compound "COc1ccc(Br)c2c1B(O)O[C@@H]2CN.Cl"
4210

---

Assay: Clearance in C57BL/6 mouse at 30 mg/kg, iv administered as single dose measured up to 24 hrs by LC-MS/MS analysis
Type: ADME, organism-based
Details: in vivo
Readout Name: clearance
Entry format: amount then unit.

Identify clearance associated with the compound "Cl.NC[C@H]1OB(O)c2c3c(cc(Cl)c21)OCCO3"
6.6 mL/min/kg

---

Test: Tmax in CD-1 mouse at 30 mg/kg administered via oral gavage after 24 hrs by LC-MS/MS analysis
Format: ADME, organism-based
Conditions: in vivo
Readout Name: Tmax
Provide a numeric answer, followed by its unit.

Determine its reported Tmax: "CCOc1ccc(Br)c2c1B(O)O[C@@H]2CN"
30 min

---

Here, each record is paired with measured EC50 data.
Target: Leucine--tRNA ligase, cytoplasmic (Homo sapiens, UniProt Q9P2J5)
Sequence (Q9P2J5 whole entry): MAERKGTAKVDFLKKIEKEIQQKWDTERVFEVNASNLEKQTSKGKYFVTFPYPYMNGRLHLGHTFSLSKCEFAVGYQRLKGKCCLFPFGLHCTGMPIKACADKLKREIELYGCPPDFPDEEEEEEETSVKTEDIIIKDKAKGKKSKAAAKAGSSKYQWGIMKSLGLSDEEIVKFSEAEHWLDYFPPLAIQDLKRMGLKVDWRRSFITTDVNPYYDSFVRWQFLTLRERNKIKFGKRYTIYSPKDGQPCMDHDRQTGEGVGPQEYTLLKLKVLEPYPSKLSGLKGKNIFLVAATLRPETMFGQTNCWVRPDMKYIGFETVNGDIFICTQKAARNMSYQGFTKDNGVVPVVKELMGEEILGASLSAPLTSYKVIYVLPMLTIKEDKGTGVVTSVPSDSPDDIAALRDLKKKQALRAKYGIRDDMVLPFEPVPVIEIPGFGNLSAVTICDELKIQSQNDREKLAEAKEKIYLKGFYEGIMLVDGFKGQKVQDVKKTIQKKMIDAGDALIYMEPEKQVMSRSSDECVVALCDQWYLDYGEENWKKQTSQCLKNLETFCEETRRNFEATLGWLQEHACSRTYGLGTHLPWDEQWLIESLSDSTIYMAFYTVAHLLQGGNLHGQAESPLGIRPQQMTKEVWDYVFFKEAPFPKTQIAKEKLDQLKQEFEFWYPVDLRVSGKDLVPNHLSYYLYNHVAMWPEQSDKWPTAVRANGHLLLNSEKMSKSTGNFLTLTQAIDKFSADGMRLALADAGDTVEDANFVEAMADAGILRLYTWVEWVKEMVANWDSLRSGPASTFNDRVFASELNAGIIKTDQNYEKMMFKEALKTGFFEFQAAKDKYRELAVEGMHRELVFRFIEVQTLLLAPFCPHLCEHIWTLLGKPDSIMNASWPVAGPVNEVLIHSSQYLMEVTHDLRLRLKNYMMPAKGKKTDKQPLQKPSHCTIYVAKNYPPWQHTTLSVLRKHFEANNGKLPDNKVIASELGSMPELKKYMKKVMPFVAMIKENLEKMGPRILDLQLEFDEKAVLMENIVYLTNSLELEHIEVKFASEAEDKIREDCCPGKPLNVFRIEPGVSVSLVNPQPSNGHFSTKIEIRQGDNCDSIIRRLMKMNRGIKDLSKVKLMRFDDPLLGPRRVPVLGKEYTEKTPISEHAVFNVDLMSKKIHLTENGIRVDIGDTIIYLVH
Test: Inhibition of cytoplasmic LeuRS in human HepG2 cells assessed as reduction in protein synthesis preincubated for 48 hrs followed by L-[14C]leucine addition measured after 3 hrs by liquid scintillation counting analysis
Format: cell-based

Here's what some known entries look like.
Smiles Input: NC[C@H]1OB(O)c2c3c(cc(Br)c21)OCCO3
EC50: 39.5 µM
//
Smiles Input: NC[C@H]1OB(O)c2c(OCCO)ccc(Br)c21
EC50: 116 µM
//
Smiles Input: CCOc1ccc(Br)c2c1B(O)O[C@@H]2CN
EC50: 30.5 µM
//
Smiles Input: Cl.NC[C@H]1OB(O)c2c(OCCO)ccc(Cl)c21
EC50: 137 µM
//
Smiles Input: CCOc1ccc(Cl)c2c1B(O)O[C@@H]2CN
EC50: 19.6 µM

State, in one line, measured EC50 of "COc1ccc(Br)c2c1B(O)O[C@@H]2CN.Cl"
97 µM

Output EC50 of "COc1ccc(Cl)c2c1B(O)O[C@@H]2CN"
105 µM

Query EC50 for "Cl.NC[C@H]1OB(O)c2c3c(cc(Cl)c21)OCCO3"
82.8 µM

---

Test: Oral bioavailability in CD-1 mouse at 30 mg/kg administered via gavage after 24 hrs by LC-MS/MS analysis
Type: ADME, organism-based
Settings: in vivo
Readout Name: bioavailability (%)
Answer format: numeric, % implied, no suffix.

State, in one line, measured bioavailability of "CCOc1ccc(Br)c2c1B(O)O[C@@H]2CN"
100

---

Experiment: AUC (0 to infinity) in C57BL/6 mouse at 28.5 mg/kg, iv administered as single dose measured up to 8 hrs by LC-MS/MS analysis
Type: ADME, organism-based
Set-up: dose 28.5 mg/kg, time infinity, route intravenous
Settings: in vivo
Readout Name: AUC(0-inf) (ng·h/mL)
Report as a plain number; the unit ng·h/mL is understood.

Fill in reported AUC(0-inf) for this entry: "CCOc1ccc(Br)c2c1B(O)O[C@@H]2CN"
72300

---

Assay: Oral bioavailability in C57BL/6 mouse at 26.1 mg/kg administered as single dose via gavage measured up to 24 hrs by LC-MS/MS analysis
Format: ADME, organism-based
Settings: in vivo
Readout Name: bioavailability
Enter the number, and then the unit.

Look up bioavailability of "CCOc1ccc(Br)c2c1B(O)O[C@@H]2CN" and report it.
100%
